Assay: In vivo pharmacokinetic study after intraperitoneal administration
Set-up: species or system mouse
Details: male, mouse, ip; 3 mg/kg intraperitoneal, CD1 mice, plasma; read-out: Cmax
Quantity name: Cmax (ng/mL)
// return numeric value only (unit: ng/mL, not printed)

Per the records, this compound ( CCCCC[C@@H]1OC(=O)[C@@H](C)N(C)C(=O)[C@H](CCCCC)OC(=O)[C@@H](C)N(C)C(=O)[C@H](CCCCC)OC(=O)[C@@H](C)N(C)C1=O (single isomer, unassigned) ) has Cmax equal to 1460

###

Assay: Plasma stability ex vivo
Assay type: in vitro ADME
Conditions: mouse; murine plasma, 37° C., two hours; read-out: parent compound remaining in plasma
Quantity name: remaining at 2 h, 1900 ng/mL

Measured remaining at 2 h, 1900 ng/mL, CCCCC[C@@H]1OC(=O)[C@@H](C)N(C)C(=O)[C@H](CCCCC)OC(=O)[C@@H](C)N(C)C(=O)[C@H](CCCCC)OC(=O)[C@@H](C)N(C)C1=O (single isomer, unassigned) : ~95%

###

Test: In vivo pharmacokinetic study after intraperitoneal administration
Parameters: species or system mouse
Settings: male, mouse, plasma, ip; 3 mg/kg intraperitoneal, CD1 mice
Quantity name: CL/F (mL/min/kg)
Express it in mL/min/kg; write the number only.

Sample CCCCC[C@@H]1OC(=O)[C@@H](C)N(C)C(=O)[C@H](CCCCC)OC(=O)[C@@H](C)N(C)C(=O)[C@H](CCCCC)OC(=O)[C@@H](C)N(C)C1=O (single isomer, unassigned) ; CL/F observed: 50.2

###

Experiment: In vivo pharmacokinetic study after intraperitoneal administration
Parameters: species or system mouse
Details: male, mouse, plasma, ip; 3 mg/kg intraperitoneal, CD1 mice
Quantity name: Tmax (min)
Give just the numeric value; min need not be written.

Recorded Tmax (compound CCCCC[C@@H]1OC(=O)[C@@H](C)N(C)C(=O)[C@H](CCCCC)OC(=O)[C@@H](C)N(C)C(=O)[C@H](CCCCC)OC(=O)[C@@H](C)N(C)C1=O (single isomer, unassigned) [ent-B1] ): 10

###

Assay: In vivo pharmacokinetic study after intraperitoneal administration
Parameters: species or system mouse
Details: male, CD1, mouse, plasma, ip, 3 mg/kg, 3 mg/kg intraperitoneal, CD1 mice; read-out: T1/2 (elimination half-life) (converted)
Quantity name: half-life (min)
Use min as the unit, but write only the number.

Lab note: CCCCC[C@@H]1OC(=O)[C@@H](C)N(C)C(=O)[C@H](CCCCC)OC(=O)[C@@H](C)N(C)C(=O)[C@H](CCCCC)OC(=O)[C@@H](C)N(C)C1=O (single isomer, unassigned) gave half-life of 45.4

###

Assay: In vivo pharmacokinetic study after intraperitoneal administration
Design: species or system mouse
Conditions: male, mouse, plasma, ip; 3 mg/kg intraperitoneal, CD1 mice
Quantity name: AUC(0-inf) (ng·h/mL)
Form entry: value (ng·h/mL) — number only.

// sample CCCCC[C@@H]1OC(=O)[C@@H](C)N(C)C(=O)[C@H](CCCCC)OC(=O)[C@@H](C)N(C)C(=O)[C@H](CCCCC)OC(=O)[C@@H](C)N(C)C1=O (single isomer, unassigned) , its AUC(0-inf) was 1020

Origin of measurements: patent US20240174718A1
